pEC50 listing for selected compounds.
# Test system: Human respirovirus 3
# protocol_notes: Antiviral activity against Parainfluenza virus type 3 in african green monkey Vero cells assessed as protection against virus-induced cytopathicity
# Format: functional, organism-based
# condition_notes: Human respirovirus 3, Vero
pEC50: −log10 of the molar value.

Use these answered entries as a reference point.
compound: Cc1cc(C)cc(S(=O)(=O)c2c(C(=O)NCCC(N)=O)[nH]c3ccc(Br)cc23)c1
readout_label: pEC50
observed_value: < 4.70
//
compound: Cc1cc(C)cc(S(=O)(=O)c2c(C(N)=O)[nH]c3ccc(Cl)cc23)c1
readout_label: pEC50
observed_value: < 4.00
//
compound: Cc1cc(C)cc(S(=O)(=O)c2c(C(=O)NCCC(N)=O)[nH]c3ccc(Cl)cc23)c1
readout_label: pEC50
observed_value: < 4.70

Name the recorded pEC50 of the compound listed here: Cc1cc(C)cc(S(=O)(=O)c2c(C(=O)NCC(N)=O)[nH]c3ccc([N+](=O)[O-])cc23)c1
< 4.00

Name the recorded pEC50 of the compound listed here: Cc1cc(C)cc(S(=O)(=O)c2c(C(=O)NC(C)CC(N)=O)[nH]c3ccc(Cl)cc23)c1 (stereo not given)
< 4.70
